Can you tell me pKi for the items I'm about to list?
target: T1, recombinant human αvβ6 extracellular domain (R&D Systems) (human, UniProt P06756 31-992; P18564 22-709)
T1 chain 1: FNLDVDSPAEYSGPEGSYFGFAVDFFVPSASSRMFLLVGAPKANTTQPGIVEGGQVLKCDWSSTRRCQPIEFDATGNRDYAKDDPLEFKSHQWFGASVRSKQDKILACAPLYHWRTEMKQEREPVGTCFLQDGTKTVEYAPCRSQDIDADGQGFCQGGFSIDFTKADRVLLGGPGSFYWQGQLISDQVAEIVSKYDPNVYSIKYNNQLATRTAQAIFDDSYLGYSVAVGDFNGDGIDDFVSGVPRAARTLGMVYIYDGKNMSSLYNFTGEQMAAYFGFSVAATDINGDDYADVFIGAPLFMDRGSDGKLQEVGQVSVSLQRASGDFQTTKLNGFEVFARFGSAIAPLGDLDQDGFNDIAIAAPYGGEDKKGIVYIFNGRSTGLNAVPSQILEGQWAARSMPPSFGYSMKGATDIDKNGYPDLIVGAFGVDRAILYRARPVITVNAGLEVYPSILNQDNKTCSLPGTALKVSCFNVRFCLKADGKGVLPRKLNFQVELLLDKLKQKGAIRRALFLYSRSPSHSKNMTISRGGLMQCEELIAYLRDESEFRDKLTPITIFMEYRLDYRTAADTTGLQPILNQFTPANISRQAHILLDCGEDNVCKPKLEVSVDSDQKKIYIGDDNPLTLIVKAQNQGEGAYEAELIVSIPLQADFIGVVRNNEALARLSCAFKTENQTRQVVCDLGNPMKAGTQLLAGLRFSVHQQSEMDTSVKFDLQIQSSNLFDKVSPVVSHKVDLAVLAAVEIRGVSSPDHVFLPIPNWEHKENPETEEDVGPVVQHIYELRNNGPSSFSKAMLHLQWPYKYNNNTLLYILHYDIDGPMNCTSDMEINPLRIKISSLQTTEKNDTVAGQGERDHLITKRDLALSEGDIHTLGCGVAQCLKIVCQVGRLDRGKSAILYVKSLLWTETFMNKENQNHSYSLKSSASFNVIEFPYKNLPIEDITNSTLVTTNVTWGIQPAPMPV
T1 chain 2: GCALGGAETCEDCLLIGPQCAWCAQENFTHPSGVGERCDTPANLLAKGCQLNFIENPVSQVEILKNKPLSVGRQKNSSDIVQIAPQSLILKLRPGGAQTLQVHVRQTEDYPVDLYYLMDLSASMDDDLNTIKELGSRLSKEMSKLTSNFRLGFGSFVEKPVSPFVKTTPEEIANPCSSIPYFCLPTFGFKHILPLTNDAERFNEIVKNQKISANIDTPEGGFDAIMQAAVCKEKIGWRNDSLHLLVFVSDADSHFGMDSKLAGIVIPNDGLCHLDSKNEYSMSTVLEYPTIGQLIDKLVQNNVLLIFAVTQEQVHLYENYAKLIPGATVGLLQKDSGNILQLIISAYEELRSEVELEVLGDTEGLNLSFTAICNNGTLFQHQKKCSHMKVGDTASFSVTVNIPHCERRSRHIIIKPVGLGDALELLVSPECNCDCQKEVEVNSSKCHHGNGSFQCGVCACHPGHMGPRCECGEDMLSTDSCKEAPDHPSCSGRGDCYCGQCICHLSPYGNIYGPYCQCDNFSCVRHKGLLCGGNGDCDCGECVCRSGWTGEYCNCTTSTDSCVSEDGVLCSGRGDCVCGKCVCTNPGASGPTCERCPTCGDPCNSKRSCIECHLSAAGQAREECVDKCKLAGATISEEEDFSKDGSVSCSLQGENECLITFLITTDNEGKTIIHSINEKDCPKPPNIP
Bridges are numbered along the chain shown (N, C = ends). Where no end group is shown, it is not given here. [ ]: non-standard residue; d: D form. maleimide‑NOTA = 1,4,7-triazacyclononane-1,4-bis-acetic acid-7-maleimidoethylacetamide; Lys(N3) = [N-]=[N+]=NCCCC[C@H](N)C(=O)O; Pra = C#CC[C@H](N)C(=O)O
Answers are plain numbers, as −log10 of the molar value.

{"binder": "Ac-FETLRGDLRILSILR[Pra]QNL[Lys(N3)]KELQD-NH2 (triazole 16-20) [peptide 5 (triazole-stapled CgA39-63-derived peptide)]", "observed.measurement": 9.03}

Below are some binders; for each one, tell me its pKi.
1. C(maleimide‑NOTA)FETLRGDLRILSILR[Pra]QNL[Lys(N3)]KELQD-NH2 (triazole 17-21) [NOTA-5a (peptide 5a coupled to maleimide-NOTA)]
2. CFETLRGDLRILSILR[Pra]QNL[Lys(N3)]KELQD-NH2 (triazole 17-21) [peptide 5a]

1. 8.64
2. 8.77

src = patent US20220402980A1
